molecular target: BRD4 bromo domain 2 [BRD4(2)] (Homo sapiens, UniProt O60885); construct: N-terminally His6-tagged BRD4(2) (amino acids 357-445); test: BRD4/acetylated peptide H4 binding assay (TR-FRET), BRD4 bromo domain 2; details: inhibition of BRD4(2)/Ac-H4 peptide interaction
pIC50: −log10 of the molar value.
reportedProperty: pIC50

[[record]]
compound = "C[C@@H]1C(=O)N(C)c2ccc(Nc3cccc(S(N)(=O)=O)c3)nc2N1C1CCOCC1"
reported = 6.99


(a) COc1c(Nc2ccc3c(n2)N(C2CCOCC2)[C@H](C)C(=O)N3C)cccc1C(=O)N1CCN(C)CC1
(b) CC(C)N1c2nc(Nc3cccc(C(=O)N4CCN(C)CC4)c3)ccc2N(C)C(=O)[C@H]1C
(c) CC1C(=O)N(C)c2ccc(N(C)c3cccc(S(=O)(=O)N(C)C)c3)cc2N1Cc1ccccc1 (stereo not shown)
(d) C[C@@H]1C(=O)N(C)c2ccc(Nc3cccc(S(=O)(=O)N[C@H]4CC[C@H](N5CCN(CC6CC6)CC5)CC4)c3)nc2N1C1CCOCC1
List items by pIC50 in falling order. Answer format: the labels, ordered as requested. d, b, c, a
(d: 7.16, b: 6.93, c: 6.49, a: 6.24)

Every entry's value here was drawn from patent US20160176867A1.
